Biological target: Kappa-type opioid receptor (Cavia porcellus)
Sequence (P41144 whole entry): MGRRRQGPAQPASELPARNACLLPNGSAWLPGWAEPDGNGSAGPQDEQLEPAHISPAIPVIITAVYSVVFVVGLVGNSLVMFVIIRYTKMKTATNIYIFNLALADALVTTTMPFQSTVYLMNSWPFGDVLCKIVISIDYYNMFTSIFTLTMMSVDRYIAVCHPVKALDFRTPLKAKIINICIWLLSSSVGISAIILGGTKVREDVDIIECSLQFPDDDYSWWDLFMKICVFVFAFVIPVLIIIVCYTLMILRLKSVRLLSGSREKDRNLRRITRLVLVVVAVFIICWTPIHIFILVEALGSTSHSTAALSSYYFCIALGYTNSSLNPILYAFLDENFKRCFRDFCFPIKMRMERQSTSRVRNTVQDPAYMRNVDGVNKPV
Experiment: Inhibition of [3H]-U-69,593 radioligand binding to Guinea pig Opioid receptor kappa 1; not determined
Measured metric: IC50 (nM)

{"Compound structure string": "CC(C)C[C@@H](NC(=O)[C@H](Cc1ccccc1)NC(=O)CNC(=O)[C@@H](C)NC(=O)[C@@H](N)Cc1ccc(O)cc1)C(=O)O", "Target or system": "Kappa-type opioid receptor (Cavia porcellus)", "Measured metric": "IC50", "Test result": 1.71}

###

Let's look at some compounds and their measured pIC50.
Molecular target: Mu-type opioid receptor (Cavia porcellus, UniProt P97266)
Sequence (P97266 whole entry): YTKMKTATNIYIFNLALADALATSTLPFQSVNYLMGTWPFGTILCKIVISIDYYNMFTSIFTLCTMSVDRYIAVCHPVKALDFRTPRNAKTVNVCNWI
Experiment: The opioid activity against the mu-receptor in the isolated guinea pig ileum(GPI)
pIC50: −log10 of the molar value.

{"Compound": "CN1CCC2(c3cccc(O)c3)CCCC1C2 (stereo in doubt; (-)-1)", "pIC50": 6.19}
{"Compound": "CN1CCC2(c3cccc(O)c3)CCCC1C2 (single isomer, unassigned; (+))", "pIC50": 6.77}
{"Compound": "CC(C)C[C@@H](NC(=O)[C@H](Cc1ccccc1)NC(=O)CNC(=O)[C@@H](C)NC(=O)[C@@H](N)Cc1ccc(O)cc1)C(=O)O", "pIC50": 7.54}
{"Compound": "CN1CCC2(c3cccc(O)c3)CC1Cc1[nH]c3ccccc3c12 (single isomer, unassigned; (-))", "pIC50": 5.63}

###

Molecular target: Delta-type opioid receptor (Rattus norvegicus, UniProt P33533)
Sequence (P33533 whole entry): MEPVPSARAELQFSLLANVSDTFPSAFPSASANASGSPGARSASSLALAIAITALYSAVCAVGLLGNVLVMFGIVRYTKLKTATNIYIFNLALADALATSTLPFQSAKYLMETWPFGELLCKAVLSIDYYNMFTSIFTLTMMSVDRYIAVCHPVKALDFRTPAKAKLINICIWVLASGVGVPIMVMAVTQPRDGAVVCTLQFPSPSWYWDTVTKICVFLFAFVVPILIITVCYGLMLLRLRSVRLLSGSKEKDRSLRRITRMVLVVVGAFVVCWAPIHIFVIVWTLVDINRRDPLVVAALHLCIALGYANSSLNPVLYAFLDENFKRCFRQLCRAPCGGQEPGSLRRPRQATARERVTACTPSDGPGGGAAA
Assay: Inhibition of [3H]DADLE radioligand binding to rat brain opioid receptor delta 1.
# note: boundary value 40 nM maps to False; IC50 below it maps to True

{"Compound": "Oc1cccc(C23CCNC(Cc4[nH]c5ccccc5c42)C3)c1 (stereo unspecified)", "Class": "False"}
{"Compound": "CN1CCC2(c3cccc(O)c3)CC1Cc1[nH]c3c(ccc4ccccc43)c12 (stereo unspecified)", "Class": "True"}
{"Compound": "CN1CCC2(c3cccc(O)c3)CC(=O)CC1C2 (stereo in doubt; 13)", "Class": "False"}
{"Compound": "CCCCCCN1CCC2(c3cccc(O)c3)CC1Cc1[nH]c3ccccc3c12 (stereo unspecified)", "Class": "True"}
{"Compound": "CN1CCC2(c3cccc(O)c3)Cc3[nH]c4ccccc4c3C1C2 (stereo unspecified)", "Class": "False"}
{"Compound": "Oc1cccc(C23CCN(CCc4ccccc4)C(Cc4[nH]c5ccccc5c42)C3)c1 (single isomer, unassigned; (+))", "Class": "False"}
{"Compound": "CN1CCC2(c3cccc(O)c3)CCCC1C2 (single isomer, unassigned; (+))", "Class": "False"}
{"Compound": "CN1CCC2(c3cccc(O)c3)CC(=O)CC1C2 (single isomer, unassigned; (+))", "Class": "False"}
{"Compound": "CN1CCC2(c3cccc(O)c3)C/C(=N/Nc3ccccc3)CC1C2 (stereo unspecified)", "Class": "False"}
{"Compound": "Oc1cccc(C23CCN(CCc4ccccc4)C(Cc4[nH]c5ccccc5c42)C3)c1 (single isomer, unassigned; (-))", "Class": "True"}

###

pIC50: −log10 of the molar value.
Quick record: pIC50, Mu-type opioid receptor (Rattus norvegicus).
Measured metric: pIC50

{"Molecule": "CCN1CCC2(c3cccc(O)c3)CC1Cc1[nH]c3ccccc3c12 (stereo not given)", "Target or system": "Mu-type opioid receptor (Rattus norvegicus)", "Limit qualifier": "=", "Test result": 5.90}
{"Molecule": "CN1CCC2(c3cccc(O)c3)CCCC1C2 (single isomer, unassigned; (+))", "Target or system": "Mu-type opioid receptor (Rattus norvegicus)", "Limit qualifier": "=", "Test result": 7.67}
{"Molecule": "CN1CCC2(c3cccc(O)c3)CC1Cc1[nH]c3ccc4ccccc4c3c12 (stereo not given)", "Target or system": "Mu-type opioid receptor (Rattus norvegicus)", "Limit qualifier": "<", "Test result": 6.00}
{"Molecule": "CCCCCN1CCC2(c3cccc(O)c3)CC1Cc1[nH]c3ccccc3c12 (stereo not given)", "Target or system": "Mu-type opioid receptor (Rattus norvegicus)", "Limit qualifier": "=", "Test result": 7.63}
{"Molecule": "CN1CCC2(c3cccc(O)c3)CCCC1C2 (stereo in doubt; (-)-1)", "Target or system": "Mu-type opioid receptor (Rattus norvegicus)", "Limit qualifier": "=", "Test result": 7.68}
{"Molecule": "Oc1cccc(C23CCN(Cc4ccccc4)C(Cc4[nH]c5ccccc5c42)C3)c1 (stereo not given)", "Target or system": "Mu-type opioid receptor (Rattus norvegicus)", "Limit qualifier": "=", "Test result": 6.29}
{"Molecule": "CCCCCCCN1CCC2(c3cccc(O)c3)CC1Cc1[nH]c3ccccc3c12 (stereo not given)", "Target or system": "Mu-type opioid receptor (Rattus norvegicus)", "Limit qualifier": "=", "Test result": 7.18}
{"Molecule": "Oc1cccc(C23CCNC(Cc4[nH]c5ccccc5c42)C3)c1 (stereo not given)", "Target or system": "Mu-type opioid receptor (Rattus norvegicus)", "Limit qualifier": "=", "Test result": 6.45}
{"Molecule": "C=CCN1CCC2(c3cccc(O)c3)CC1Cc1[nH]c3ccccc3c12 (stereo not given)", "Target or system": "Mu-type opioid receptor (Rattus norvegicus)", "Limit qualifier": "=", "Test result": 6.44}
{"Molecule": "CCCN1CCC2(c3cccc(O)c3)CC1Cc1[nH]c3ccccc3c12 (stereo not given)", "Target or system": "Mu-type opioid receptor (Rattus norvegicus)", "Limit qualifier": "=", "Test result": 6.52}
